# method.description: Apparent (non-equilibrium) solubilities of Form C in various solvents
# Type: physicochemical
# measurement.parameters: organic solvent or mixture, thermodynamic from solid; apparent, Dimethylformamide

{"molecule": "NC(=O)c1ccc(N(C(N)=O)c2c(F)cccc2F)nc1-c1ccc(F)cc1F [Form C]", "uom": "mg/mL", "solubility": 100}

----------
# method.description: Apparent (non-equilibrium) solubilities of Form C in various solvents
# Type: physicochemical
# measurement.parameters: organic solvent or mixture, thermodynamic from solid; apparent, Acetone
readout.type: solubility (mg/mL)

{"compound": "NC(=O)c1ccc(N(C(N)=O)c2c(F)cccc2F)nc1-c1ccc(F)cc1F [Form C]", "experimental.value": 50}
